molecular target: Sterol O-acyltransferase 1 (Mus musculus) (UniProt Q61263); test: Inhibition of ACAT in mouse liver microsomes at 20 uM; conditions: Microsome
measurement_name: inhibition (%)

The following compounds have reported results that may help.
>>> endpoint_result("CCCC[C@H](C)[C@@H]1CC(=O)N[C@@H](Cc2ccccc2)C(=O)N[C@@H](C)C(=O)N[C@H](Cc2ccccc2)C(=O)O1")
76
>>> endpoint_result("CCCC[C@H](C)[C@@H]1CC(=O)N[C@@H](Cc2ccccc2)C(=O)N[C@H](C)C(=O)N[C@H]([C@@H](C)CC)C(=O)O1")
94
>>> endpoint_result("CCCC[C@H](C)[C@@H]1CC(=O)N[C@@H](C(c2ccccc2)c2ccccc2)C(=O)N[C@@H](CC(N)=O)C(=O)N[C@H](CC(C)C)C(=O)O1")
98

[I] CCCC[C@H](C)[C@@H]1CC(=O)N[C@@H](Cc2ccccc2)C(=O)N[C@@H](C)C(=O)N[C@H](CC(C)C)C(=O)O1 [BEAUVERIOLIDE I]
[II] CCCC[C@H](C)[C@@H]1CC(=O)N[C@@H](Cc2ccccc2)C(=O)N[C@@H](CC(N)=O)C(=O)N[C@H](CC(C)C)C(=O)O1
Ask: I need your help: which of the pair I , II has higher inhibition? Indicate which entry you chose by stating its label.
Result: I
(I: 95%, II: 43%)

###

target: UniProt:Q61263; assay: Inhibition of ACAT in mouse liver microsomes at 20 uM; conditions: Microsome
measurement_name: inhibition (%)

>>> endpoint_result("CCCC[C@H](C)[C@@H]1CC(=O)N[C@H](Cc2ccccc2)C(=O)N[C@@H](CO)C(=O)N[C@H](CC(C)C)C(=O)O1")
40

[1] CCCC[C@H](C)[C@@H]1CC(=O)N[C@H](Cc2ccccc2)C(=O)N[C@H](C)C(=O)N[C@H](Cc2ccccc2)C(=O)O1
[2] CCCC[C@H](C)[C@@H]1CC(=O)N[C@@H](C(c2ccccc2)c2ccccc2)C(=O)N[C@@H](C)C(=O)N[C@H]([C@H](C)CC)C(=O)O1
Ask: Lab note: record which item had the higher inhibition, 1 or 2 . Please respond with the label that marks your chosen entry.
Result: 2

[a] CCCC[C@H](C)[C@@H]1CC(=O)N[C@H](Cc2ccccc2)C(=O)N[C@H](C)C(=O)N[C@H](CC(C)C)C(=O)O1
[b] CCCC[C@H](C)[C@@H]1CC(=O)N[C@H](Cc2ccccc2)C(=O)N[C@@H](CC(N)=O)C(=O)N[C@H](CC(C)C)C(=O)O1
Ask: Among a and b , whose measured inhibition is the smaller figure? Please indicate the selected item by its label.
Result: b

[A] CCCC[C@H](C)[C@@H]1CC(=O)N[C@@H](Cc2ccccc2)C(=O)N[C@H](C)C(=O)N[C@H](Cc2ccccc2)C(=O)O1
[B] CCCC[C@H](C)[C@@H]1CC(=O)N[C@@H](Cc2ccccc2)C(=O)N[C@@H](CC(N)=O)C(=O)N[C@H](Cc2ccccc2)C(=O)O1
Ask: Parameter check: reported inhibition is higher for which label, A or B ? Your answer should be the label attached to the chosen record.
Result: A
(A: 94%, B: 11%)

###

biological target: Sterol O-acyltransferase 1 (Mus musculus); assay: Inhibition of ACAT in mouse liver microsomes at 20 uM; conditions: Microsome
measurement_name: inhibition (%)

[a] CCCC[C@H](C)[C@@H]1CC(=O)N[C@@H](C(c2ccccc2)c2ccccc2)C(=O)N[C@H](C)C(=O)N[C@H]([C@@H](C)CC)C(=O)O1
[b] CCCC[C@H](C)[C@@H]1CC(=O)N[C@H](Cc2ccccc2)C(=O)N[C@@H](C)C(=O)N[C@H](Cc2ccccc2)C(=O)O1
Ask: Could you tell me which of a and b has the lower inhibition reading? Kindly give the label for the entry you pick.
Result: b

[I] CCCC[C@H](C)[C@@H]1CC(=O)N[C@@H](Cc2ccccc2)C(=O)N[C@@H](CO)C(=O)N[C@H](Cc2ccccc2)C(=O)O1
[II] CCCC[C@H](C)[C@@H]1CC(=O)N[C@H](Cc2ccccc2)C(=O)N[C@@H](CC(N)=O)C(=O)N[C@H](Cc2ccccc2)C(=O)O1
Ask: Smaller inhibition value, I vs II ? Indicate which entry you chose by stating its label.
Result: II

###

target: Sterol O-acyltransferase 1 (Mus musculus) (UniProt Q61263); assay: Inhibition of ACAT in mouse liver microsomes at 20 uM; details: Microsome
measurement_name: inhibition (%)

>>> endpoint_result("CCCC[C@H](C)[C@@H]1CC(=O)N[C@H](Cc2ccccc2)C(=O)N[C@H](C)C(=O)N[C@H]([C@@H](C)CC)C(=O)O1")
99
>>> endpoint_result("CCCC[C@H](C)[C@@H]1CC(=O)N[C@@H](C(c2ccccc2)c2ccccc2)C(=O)N[C@H](C)C(=O)N[C@H](CC(C)C)C(=O)O1")
93
>>> endpoint_result("CCCC[C@H](C)[C@@H]1CC(=O)N[C@@H](Cc2ccccc2)C(=O)N[C@@H](C)C(=O)N[C@H]([C@H](C)CC)C(=O)O1")
80
>>> endpoint_result("CCCC[C@H](C)[C@@H]1CC(=O)N[C@@H](Cc2ccccc2)C(=O)N[C@@H](CO)C(=O)N[C@H](CC(C)C)C(=O)O1")
93
>>> endpoint_result("CCCC[C@H](C)[C@@H]1CC(=O)N[C@H](Cc2ccccc2)C(=O)N[C@@H](CO)C(=O)N[C@H](Cc2ccccc2)C(=O)O1")
95
>>> endpoint_result("CCCC[C@H](C)[C@@H]1CC(=O)N[C@@H](C(c2ccccc2)c2ccccc2)C(=O)N[C@@H](C)C(=O)N[C@H](Cc2ccccc2)C(=O)O1")
71
>>> endpoint_result("CCCC[C@H](C)[C@@H]1CC(=O)N[C@@H](C(c2ccccc2)c2ccccc2)C(=O)N[C@@H](CO)C(=O)N[C@H](Cc2ccccc2)C(=O)O1")
96
>>> endpoint_result("CCCC[C@H](C)[C@@H]1CC(=O)N[C@@H](C(c2ccccc2)c2ccccc2)C(=O)N[C@@H](CC(N)=O)C(=O)N[C@H](Cc2ccccc2)C(=O)O1")
97

###

target: Sterol O-acyltransferase 1 (Mus musculus) (UniProt Q61263); assay: Inhibition of ACAT in mouse liver microsomes at 20 uM; conditions: Microsome
measurement_name: inhibition (%)

>>> endpoint_result("CCCC[C@H](C)[C@@H]1CC(=O)N[C@@H](C(c2ccccc2)c2ccccc2)C(=O)N[C@@H](C)C(=O)N[C@H]([C@@H](C)CC)C(=O)O1")
95
>>> endpoint_result("CCCC[C@H](C)[C@@H]1CC(=O)N[C@@H](C(c2ccccc2)c2ccccc2)C(=O)N[C@@H](C)C(=O)N[C@H](CC(C)C)C(=O)O1")
83
>>> endpoint_result("CCCC[C@H](C)[C@@H]1CC(=O)N[C@@H](C(c2ccccc2)c2ccccc2)C(=O)N[C@H](C)C(=O)N[C@H](Cc2ccccc2)C(=O)O1")
75

###

Target: Sterol O-acyltransferase 1 (Mus musculus) (UniProt Q61263)
Sequence (whole entry): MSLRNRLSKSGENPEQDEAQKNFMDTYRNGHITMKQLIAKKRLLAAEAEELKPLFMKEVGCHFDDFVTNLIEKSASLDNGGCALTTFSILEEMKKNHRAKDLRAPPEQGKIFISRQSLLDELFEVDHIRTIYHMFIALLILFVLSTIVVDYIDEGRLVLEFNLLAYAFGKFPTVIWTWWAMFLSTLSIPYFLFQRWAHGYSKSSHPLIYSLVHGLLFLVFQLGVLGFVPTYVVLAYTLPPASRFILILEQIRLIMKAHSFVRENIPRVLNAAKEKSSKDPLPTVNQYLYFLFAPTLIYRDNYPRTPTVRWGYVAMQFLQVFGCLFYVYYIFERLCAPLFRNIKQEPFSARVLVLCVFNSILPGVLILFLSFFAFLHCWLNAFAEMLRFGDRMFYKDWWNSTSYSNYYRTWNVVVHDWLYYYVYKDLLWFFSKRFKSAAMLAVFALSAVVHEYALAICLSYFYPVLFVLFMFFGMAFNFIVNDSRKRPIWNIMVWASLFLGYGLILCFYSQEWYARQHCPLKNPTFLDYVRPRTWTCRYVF
Test: Inhibition of ACAT in mouse liver microsomes at 20 uM
Details: Microsome
measurement_name: inhibition (%)

Examples with their reported inhibition follow.
>>> endpoint_result("CCCC[C@H](C)[C@@H]1CC(=O)N[C@@H](Cc2ccccc2)C(=O)N[C@H](C)C(=O)N[C@H]([C@H](C)CC)C(=O)O1")
96
>>> endpoint_result("CCCC[C@H](C)[C@@H]1CC(=O)N[C@@H](Cc2ccccc2)C(=O)N[C@H](C)C(=O)N[C@H](CC(C)C)C(=O)O1")
98
>>> endpoint_result("CCCC[C@H](C)[C@@H]1CC(=O)N[C@@H](C(c2ccccc2)c2ccccc2)C(=O)N[C@H](C)C(=O)N[C@H]([C@H](C)CC)C(=O)O1")
97
>>> endpoint_result("CCCC[C@H](C)[C@@H]1CC(=O)N[C@H](Cc2ccccc2)C(=O)N[C@@H](C)C(=O)N[C@H](CC(C)C)C(=O)O1")
87
>>> endpoint_result("CCCC[C@H](C)[C@@H]1CC(=O)N[C@H](Cc2ccccc2)C(=O)N[C@@H](C)C(=O)N[C@H]([C@H](C)CC)C(=O)O1")
70

[A] CCCC[C@H](C)[C@@H]1CC(=O)N[C@@H](C(c2ccccc2)c2ccccc2)C(=O)N[C@@H](CO)C(=O)N[C@H](CC(C)C)C(=O)O1
[B] CCCC[C@H](C)[C@@H]1CC(=O)N[C@H](Cc2ccccc2)C(=O)N[C@@H](C)C(=O)N[C@H]([C@@H](C)CC)C(=O)O1
Ask: Endpoint returns the identifier whose inhibition is numerically larger, either A or B . Give the label under which the chosen entry appears.
Result: A
